method summary: Biodistribution in PC-3 tumor-bearing NRG mice (Example 1)
Assay type: in vivo
assay context: male, NRG (NOD.Cg-Rag1tm1Mom Il2rgtm1Wjl/SzJ), mouse, PC-3 tumor, iv, 1.84 MBq, total radioactivity; 120 min p.i.; read-out: Biodistribution PC-3 Tumor, Mean
reported property: tissue uptake at 2 h (%ID/g)
Give just the numeric value; %ID/g need not be written.

Look at this compound and give its reported tissue uptake at 2 h. CC(C)C[C@@H](CN1CCC[C@H]1C(N)=O)NC(=O)[C@H](Cc1c[nH]cn1)NC(=O)CNC(=O)[C@@H](NC(=O)[C@H](C)NC(=O)[C@H](Cc1c[nH]c2ccccc12)NC(=O)[C@H](CCC(N)=O)NC(=O)[C@@H](Cc1ccccc1)NC(=O)COCC(=O)Nc1ccc(CNC(=O)CN2CCN(CC(=O)O)CCN(CC(=O)O)CCN(CC(=O)O)CC2)cc1)C(C)C [^68Ga-ProBOMB1, metal not drawn]
8.31

* * *

method summary: Biodistribution in PC-3 tumor-bearing NRG mice (Example 1)
Format: in vivo
assay context: male, NRG (NOD.Cg-Rag1tm1Mom Il2rgtm1Wjl/SzJ), mouse, bone, iv, 1.84 MBq, total radioactivity; 30 min p.i.; read-out: Biodistribution Bone, Mean
reported property: tissue uptake at 0.5 h (%ID/g)
Give just the numeric value; %ID/g need not be written.

Look at this molecule and give its reported tissue uptake at 0.5 h. CC(C)C[C@@H](CN1CCC[C@H]1C(N)=O)NC(=O)[C@H](Cc1c[nH]cn1)NC(=O)CNC(=O)[C@@H](NC(=O)[C@H](C)NC(=O)[C@H](Cc1c[nH]c2ccccc12)NC(=O)[C@H](CCC(N)=O)NC(=O)[C@@H](Cc1ccccc1)NC(=O)COCC(=O)Nc1ccc(CNC(=O)CN2CCN(CC(=O)O)CCN(CC(=O)O)CCN(CC(=O)O)CC2)cc1)C(C)C [^68Ga-ProBOMB1, metal not drawn]
0.22

* * *

method summary: Biodistribution in PC-3 tumor-bearing NRG mice (Example 1)
Format: in vivo
assay context: male, NRG (NOD.Cg-Rag1tm1Mom Il2rgtm1Wjl/SzJ), mouse, testes, iv, 1.84 MBq, total radioactivity; 120 min p.i.; read-out: Biodistribution Testes, Mean
reported property: tissue uptake at 2 h (%ID/g)
Give just the numeric value; %ID/g need not be written.

Look at this compound and give its reported tissue uptake at 2 h. CC(C)C[C@@H](CN1CCC[C@H]1C(N)=O)NC(=O)[C@H](Cc1c[nH]cn1)NC(=O)CNC(=O)[C@@H](NC(=O)[C@H](C)NC(=O)[C@H](Cc1c[nH]c2ccccc12)NC(=O)[C@H](CCC(N)=O)NC(=O)[C@@H](Cc1ccccc1)NC(=O)COCC(=O)Nc1ccc(CNC(=O)CN2CCN(CC(=O)O)CCN(CC(=O)O)CCN(CC(=O)O)CC2)cc1)C(C)C [^68Ga-ProBOMB1, metal not drawn]
0.09

* * *

method summary: Biodistribution in PC-3 tumor-bearing NSG mice (Example 2)
Assay type: in vivo
assay context: male, NSG (NOD.Cg-Prkdc^scid Il2rg^tm1Wjl/SzJ), mouse, tumor/kidney, iv, total radioactivity, 120 MIN p.i.; read-out: TUMOR-TO-KIDNEY ratio, Mean
Procedure: […]. The mice were sacrificed by CO2 inhalation at 1 h, and 2 h p.i. Blood was collected by cardiac puncture. Organs/tissues were harvested, rinsed with PBS, blotted dry, and weighed. The activity in tissues was assayed by gamma counter and expressed as the percentage injected dose per gram of tissue (% ID/g).
reported property: tissue to tissue ratio at 2 h
Please give only the number in your answer, with no unit.

Look at this molecule and give its reported tissue to tissue ratio at 2 h. CC(C)C[C@@H](CN1CCC[C@H]1C(N)=O)NC(=O)[C@H](Cc1c[nH]cn1)NC(=O)CNC(=O)[C@@H](NC(=O)[C@H](C)NC(=O)[C@H](Cc1c[nH]c2ccccc12)NC(=O)[C@H](CCC(N)=O)NC(=O)[C@@H](Cc1ccccc1)NC(=O)CN1CCC(NC(=O)CN2CCN(CC(=O)O)CCN(CC(=O)O)CCN(CC(=O)O)CC2)CC1)C(C)C [^68Ga-ProBOMB2, metal not drawn]
6.96

* * *

method summary: Biodistribution in PC-3 tumor-bearing NRG mice (Example 1)
Assay type: in vivo
assay context: male, NRG (NOD.Cg-Rag1tm1Mom Il2rgtm1Wjl/SzJ), mouse, intestine, iv, 1.84 MBq, total radioactivity; 30 min p.i.; read-out: Biodistribution Intestine, Mean
reported property: tissue uptake at 0.5 h
Respond with the figure and its unit, in that order.

Look at this molecule and give its reported tissue uptake at 0.5 h. CC(C)C[C@@H](CN1CCC[C@H]1C(N)=O)NC(=O)[C@H](Cc1c[nH]cn1)NC(=O)CNC(=O)[C@@H](NC(=O)[C@H](C)NC(=O)[C@H](Cc1c[nH]c2ccccc12)NC(=O)[C@H](CCC(N)=O)NC(=O)[C@@H](Cc1ccccc1)NC(=O)COCC(=O)Nc1ccc(CNC(=O)CN2CCN(CC(=O)O)CCN(CC(=O)O)CCN(CC(=O)O)CC2)cc1)C(C)C [^68Ga-ProBOMB1, metal not drawn]
2.63 %ID/g

* * *

method summary: Biodistribution in PC-3 tumor-bearing NRG mice (Example 1)
Assay type: in vivo
assay context: male, NRG (NOD.Cg-Rag1tm1Mom Il2rgtm1Wjl/SzJ), mouse, muscle, iv, 1.84 MBq, total radioactivity; 120 min p.i.; read-out: Biodistribution Muscle, Mean
reported property: tissue uptake at 2 h (%ID/g)
Give just the numeric value; %ID/g need not be written.

Look at this molecule and give its reported tissue uptake at 2 h. CC(C)C[C@@H](CN1CCC[C@H]1C(N)=O)NC(=O)[C@H](Cc1c[nH]cn1)NC(=O)CNC(=O)[C@@H](NC(=O)[C@H](C)NC(=O)[C@H](Cc1c[nH]c2ccccc12)NC(=O)[C@H](CCC(N)=O)NC(=O)[C@@H](Cc1ccccc1)NC(=O)COCC(=O)Nc1ccc(CNC(=O)CN2CCN(CC(=O)O)CCN(CC(=O)O)CCN(CC(=O)O)CC2)cc1)C(C)C [^68Ga-ProBOMB1, metal not drawn]
0.08

* * *

method summary: Biodistribution in PC-3 tumor-bearing NSG mice (Example 2)
Format: in vivo
assay context: male, NSG (NOD.Cg-Prkdc^scid Il2rg^tm1Wjl/SzJ), mouse, tumor/kidney, iv, total radioactivity, 60 MIN p.i.; read-out: TUMOR-TO-KIDNEY ratio, Mean
reported property: tissue to tissue ratio at 1 h
Please give only the number in your answer, with no unit.

Look at this molecule and give its reported tissue to tissue ratio at 1 h. CC(C)C[C@@H](CN1CCC[C@H]1C(N)=O)NC(=O)[C@H](Cc1c[nH]cn1)NC(=O)CNC(=O)[C@@H](NC(=O)[C@H](C)NC(=O)[C@H](Cc1c[nH]c2ccccc12)NC(=O)[C@H](CCC(N)=O)NC(=O)[C@@H](Cc1ccccc1)NC(=O)CN1CCC(NC(=O)CN2CCN(CC(=O)O)CCN(CC(=O)O)CCN(CC(=O)O)CC2)CC1)C(C)C [^68Ga-ProBOMB2, metal not drawn]
6.03

* * *

method summary: Biodistribution in PC-3 tumor-bearing NRG mice (Example 1)
Assay type: in vivo
assay context: male, NRG (NOD.Cg-Rag1tm1Mom Il2rgtm1Wjl/SzJ), mouse, lung, iv, 1.84 MBq, total radioactivity; 120 min p.i.; read-out: Biodistribution Lung, Mean
reported property: tissue uptake at 2 h (%ID/g)
Give just the numeric value; %ID/g need not be written.

Look at this compound and give its reported tissue uptake at 2 h. CC(C)C[C@@H](CN1CCC[C@H]1C(N)=O)NC(=O)[C@H](Cc1c[nH]cn1)NC(=O)CNC(=O)[C@@H](NC(=O)[C@H](C)NC(=O)[C@H](Cc1c[nH]c2ccccc12)NC(=O)[C@H](CCC(N)=O)NC(=O)[C@@H](Cc1ccccc1)NC(=O)COCC(=O)Nc1ccc(CNC(=O)CN2CCN(CC(=O)O)CCN(CC(=O)O)CCN(CC(=O)O)CC2)cc1)C(C)C [^68Ga-ProBOMB1, metal not drawn]
0.25

* * *

method summary: Biodistribution in PC-3 tumor-bearing NRG mice (Example 1)
Type: in vivo
assay context: male, NRG (NOD.Cg-Rag1tm1Mom Il2rgtm1Wjl/SzJ), mouse, whole blood, iv, 1.84 MBq, total radioactivity; 120 min p.i.; read-out: Biodistribution Blood, Mean
Procedure: The mice were sacrificed by CO2 inhalation at 30 min, 1 h, and 2 h p.i. Blood was collected by cardiac puncture. Organs/tissues were harvested, rinsed with PBS, blotted dry, and weighed. The activity in tissues was assayed by gamma counter and expressed as the percentage injected dose per gram of tissue (% ID/g).
reported property: tissue uptake at 2 h (%ID/g)
Give just the numeric value; %ID/g need not be written.

Look at this compound and give its reported tissue uptake at 2 h. CC(C)C[C@@H](CN1CCC[C@H]1C(N)=O)NC(=O)[C@H](Cc1c[nH]cn1)NC(=O)CNC(=O)[C@@H](NC(=O)[C@H](C)NC(=O)[C@H](Cc1c[nH]c2ccccc12)NC(=O)[C@H](CCC(N)=O)NC(=O)[C@@H](Cc1ccccc1)NC(=O)COCC(=O)Nc1ccc(CNC(=O)CN2CCN(CC(=O)O)CCN(CC(=O)O)CCN(CC(=O)O)CC2)cc1)C(C)C [^68Ga-ProBOMB1, metal not drawn]
0.13
